The measurements presented in this section are drawn from ChEMBL document CHEMBL2429852.

Reported MIC99 by item:
- Test system: Aspergillus clavatus
- method description: Antifungal activity against Aspergillus clavatus MTCC 1323 assessed as growth inhibition by broth microdilution method
- Type: functional
measurement label: MIC99 (µg/mL)

[
  {
    "molecule": "O=C(/C=C/c1ccc2c(c1)OCO2)c1cccc([N+](=O)[O-])c1",
    "tested system": "Aspergillus clavatus",
    "measurement label": "MIC99",
    "reading unit": "µg/mL",
    "qualifier operator": "=",
    "result number": 1000
  },
  {
    "molecule": "O=[N+]([O-])c1cccc(C2=NNC(c3ccc4ccccc4c3)C2)c1 (centres undefined)",
    "tested system": "Aspergillus clavatus",
    "measurement label": "MIC99",
    "reading unit": "µg/mL",
    "qualifier operator": "=",
    "result number": 250
  },
  {
    "molecule": "COc1ccc(C2CC(c3cccc([N+](=O)[O-])c3)=NN2)cc1 (centres undefined)",
    "tested system": "Aspergillus clavatus",
    "measurement label": "MIC99",
    "reading unit": "µg/mL",
    "qualifier operator": "=",
    "result number": 1000
  },
  {
    "molecule": "COC1=CC(=O)C[C@@H](C)[C@]12Oc1c(Cl)c(OC)cc(OC)c1C2=O",
    "tested system": "Aspergillus clavatus",
    "measurement label": "MIC99",
    "reading unit": "µg/mL",
    "qualifier operator": "=",
    "result number": 100
  },
  {
    "molecule": "CCOC(=O)C1C(=O)C=C(c2cccc([N+](=O)[O-])c2)CC1c1ccc(OC)cc1 (centres undefined)",
    "tested system": "Aspergillus clavatus",
    "measurement label": "MIC99",
    "reading unit": "µg/mL",
    "qualifier operator": ">",
    "result number": 1000
  },
  {
    "molecule": "COc1cc(OC)c(C2CC(c3cccc([N+](=O)[O-])c3)=NN2C(C)=O)cc1OC (centres undefined)",
    "tested system": "Aspergillus clavatus",
    "measurement label": "MIC99",
    "reading unit": "µg/mL",
    "qualifier operator": "=",
    "result number": 250
  },
  {
    "molecule": "CC(=O)N1N=C(c2cccc([N+](=O)[O-])c2)CC1c1ccc2c(c1)OCO2 (centres undefined)",
    "tested system": "Aspergillus clavatus",
    "measurement label": "MIC99",
    "reading unit": "µg/mL",
    "qualifier operator": "=",
    "result number": 500
  },
  {
    "molecule": "CC(=O)N1N=C(c2cccc([N+](=O)[O-])c2)CC1/C=C/c1ccccc1 (centres undefined)",
    "tested system": "Aspergillus clavatus",
    "measurement label": "MIC99",
    "reading unit": "µg/mL",
    "qualifier operator": ">",
    "result number": 1000
  },
  {
    "molecule": "COc1cc(C2CC(c3cccc([N+](=O)[O-])c3)=NN2C(C)=O)cc(OC)c1OC (centres undefined)",
    "tested system": "Aspergillus clavatus",
    "measurement label": "MIC99",
    "reading unit": "µg/mL",
    "qualifier operator": "=",
    "result number": 500
  }
]
